system under test: UniProt P33032
Sequence (P33032 whole entry): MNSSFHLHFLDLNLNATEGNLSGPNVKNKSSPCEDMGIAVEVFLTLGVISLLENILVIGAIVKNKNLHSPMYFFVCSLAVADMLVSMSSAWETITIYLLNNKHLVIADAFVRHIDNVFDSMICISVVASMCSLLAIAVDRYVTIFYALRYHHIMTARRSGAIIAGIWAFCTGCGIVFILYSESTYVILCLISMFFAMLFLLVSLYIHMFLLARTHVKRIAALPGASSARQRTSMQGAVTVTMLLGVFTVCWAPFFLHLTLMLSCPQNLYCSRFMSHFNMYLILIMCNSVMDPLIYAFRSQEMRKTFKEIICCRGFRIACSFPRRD
Starred links: 1 amine or outer side, 2 acyl side, 3 side chain; linkers in the order of their positions; H or OH if unused. Positions of bridges follow the written chain, without caps; N, C: chain ends. Non-standard residues stand in square brackets, D forms with d. Residues, ends and D or L forms follow the SMILES beside them. ξ: configuration not given here. dPhe(4-Cl) = N[C@H](Cc1ccc(Cl)cc1)C(=O)O; Suc = O=C(CCC(=O)[*:2])[*:1]; ξE = NC(CCC(=O)O)C(=O)O; ξDab = NCCC(N)C(=O)O; ξK = NCCCCC(N)C(=O)O; ξDap = NCC(N)C(=O)O; Ava = NCCCCC(=O)O; βAla = NCCC(=O)O
So I've got a bunch of molecules here, and I need their IC50 values.
Answers are plain numbers, in µM.

Worked examples follow.
Request: Param item = N=C(N)NCCC[C@@H]1NC(=O)[C@@H](Cc2ccc(Cl)cc2)NC(=O)[C@H](Cc2c[nH]cn2)NC(=O)CCC(=O)NCCCCC(C(N)=O)NC(=O)[C@H](Cc2c[nH]c3ccccc23)NC1=O (stereo partly drawn) [Example 4] (H[dPhe(4-Cl)]RW[ξK]-NH2; linker N-5 via Suc) ; retrieve measured IC50.
Result: 0.092

Request: Follow-up entry: N=C(N)NCCC[C@@H]1NC(=O)[C@@H](Cc2ccccc2)NC(=O)[C@H](Cc2c[nH]cn2)NC(=O)CCCCNC(=O)CCC(C(N)=O)NC(=O)[C@H](Cc2c[nH]c3ccccc23)NC1=O (stereo partly drawn) [Example 6] ([Ava]H[dF]RW[ξE]-NH2; lactam N-6)
Result: 9

Request: Follow-up entry: N=C(N)NCCC[C@@H]1NC(=O)[C@@H](Cc2ccccc2)NC(=O)[C@H](Cc2c[nH]cn2)NC(=O)CCC(=O)NCCCCC(C(N)=O)NC(=O)[C@H](Cc2c[nH]c3ccccc23)NC1=O (stereo partly drawn) [Example 1] (H[dF]RW[ξK]-NH2; linker N-5 via Suc)
Result: 3.1

Request: Follow-up entry: N=C(N)NCCC[C@@H]1NC(=O)[C@@H](Cc2ccccc2)NC(=O)[C@H](Cc2c[nH]cn2)NC(=O)CCC(=O)NCC(C(N)=O)NC(=O)[C@H](Cc2c[nH]c3ccccc23)NC1=O (stereo partly drawn) [Example 3] (H[dF]RW[ξDap]-NH2; linker N-5 via Suc)
Result: 3.6

Request: Follow-up entry: N=C(N)NCCC[C@@H]1NC(=O)[C@@H](Cc2ccccc2)NC(=O)[C@H](Cc2c[nH]cn2)NC(=O)CCNC(=O)CCC(C(N)=O)NC(=O)[C@H](Cc2c[nH]c3ccccc23)NC1=O (stereo partly drawn) [Example 8] ([βAla]H[dF]RW[ξE]-NH2; lactam N-6)
Result: 5.05

Pending molecule:
Request: Param item = N=C(N)NCCC[C@@H]1NC(=O)[C@@H](Cc2ccccc2)NC(=O)[C@H](Cc2c[nH]cn2)NC(=O)CCC(=O)NCCC(C(N)=O)NC(=O)[C@H](Cc2c[nH]c3ccccc23)NC1=O (stereo partly drawn) [Example 2] (H[dF]RW[ξDab]-NH2; linker N-5 via Suc) ; retrieve measured IC50.
Result: 7.2

###

So I've got a bunch of molecules here, and I need their log10(EC50) values.
system under test: hMC-4R (Homo sapiens)
Sequence (P32245 whole entry): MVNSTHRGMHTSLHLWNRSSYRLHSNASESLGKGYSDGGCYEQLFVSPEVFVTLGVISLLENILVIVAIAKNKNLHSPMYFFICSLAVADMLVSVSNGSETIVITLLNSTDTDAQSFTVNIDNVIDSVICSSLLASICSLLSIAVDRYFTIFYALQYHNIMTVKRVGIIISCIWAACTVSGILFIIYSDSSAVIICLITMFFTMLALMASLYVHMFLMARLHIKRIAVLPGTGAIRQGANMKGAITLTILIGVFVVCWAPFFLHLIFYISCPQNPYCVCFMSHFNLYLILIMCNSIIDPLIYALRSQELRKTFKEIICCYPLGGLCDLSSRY
method summary: cAMP assay in CHO cells expressing a human melanocortin receptor
experimental parameters: 45 minutes at room temperature
Starred links: 1 amine or outer side, 2 acyl side, 3 side chain; linkers in the order of their positions; H or OH if unused. Positions of bridges follow the written chain, without caps; N, C: chain ends. Non-standard residues stand in square brackets, D forms with d. Residues, ends and D or L forms follow the SMILES beside them. ξ: configuration not given here. dPhe(4-Cl) = N[C@H](Cc1ccc(Cl)cc1)C(=O)O; 2Nal = N[C@@H](Cc1ccc2ccccc2c1)C(=O)O; Suc = O=C(CCC(=O)[*:2])[*:1]; ξE = NC(CCC(=O)O)C(=O)O; ξDab = NCCC(N)C(=O)O; ξK = NCCCCC(N)C(=O)O; ξDap = NCC(N)C(=O)O; Ava = NCCCCC(=O)O; GABA = NCCCC(=O)O
// stored as log10 of EC50 expressed in nM

Request: Param item = N=C(N)NCCC[C@@H]1NC(=O)[C@@H](Cc2ccccc2)NC(=O)[C@H](Cc2c[nH]cn2)NC(=O)CCCCNC(=O)CCC(C(N)=O)NC(=O)[C@H](Cc2c[nH]c3ccccc23)NC1=O (some centres unmarked) [Example 6] ([Ava]H[dF]RW[ξE]-NH2; lactam N-6) ; retrieve measured log10(EC50).
Result: 0.43

Hey, can you go through the list below and give me log10(EC50) for every item?
1. N=C(N)NCCC[C@@H]1NC(=O)[C@@H](Cc2ccccc2)NC(=O)[C@H](Cc2c[nH]cn2)NC(=O)CCC(=O)NCC(C(N)=O)NC(=O)[C@H](Cc2c[nH]c3ccccc23)NC1=O (some centres unmarked) [Example 3] (H[dF]RW[ξDap]-NH2; linker N-5 via Suc)
2. N=C(N)NCCC[C@@H]1NC(=O)[C@@H](Cc2ccccc2)NC(=O)[C@H](Cc2c[nH]cn2)NC(=O)CCC(=O)NCCCCC(C(N)=O)NC(=O)[C@H](Cc2c[nH]c3ccccc23)NC1=O (some centres unmarked) [Example 1] (H[dF]RW[ξK]-NH2; linker N-5 via Suc)

Result:
1. 1.52
2. 0.52

Hey, can you go through the list below and give me log10(EC50) for every item?
1. N=C(N)NCCC[C@@H]1NC(=O)[C@@H](Cc2ccccc2)NC(=O)[C@H](Cc2c[nH]cn2)NC(=O)CNC(=O)CCC(C(N)=O)NC(=O)[C@H](Cc2c[nH]c3ccccc23)NC1=O (some centres unmarked) [Example 9] (GH[dF]RW[ξE]-NH2; lactam N-6)
2. N=C(N)NCCC[C@@H]1NC(=O)[C@@H](Cc2ccccc2)NC(=O)[C@H](Cc2c[nH]cn2)NC(=O)CCC(=O)NCCCCC(C(N)=O)NC(=O)[C@H](Cc2ccc3ccccc3c2)NC1=O (some centres unmarked) [Example 5] (H[dF]R[2Nal][ξK]-NH2; linker N-5 via Suc)
3. N=C(N)NCCC[C@@H]1NC(=O)[C@@H](Cc2ccccc2)NC(=O)[C@H](Cc2c[nH]cn2)NC(=O)CCC(=O)NCCC(C(N)=O)NC(=O)[C@H](Cc2c[nH]c3ccccc23)NC1=O (some centres unmarked) [Example 2] (H[dF]RW[ξDab]-NH2; linker N-5 via Suc)
4. N=C(N)NCCC[C@@H]1NC(=O)[C@@H](Cc2ccc(Cl)cc2)NC(=O)[C@H](Cc2c[nH]cn2)NC(=O)CCC(=O)NCCCCC(C(N)=O)NC(=O)[C@H](Cc2c[nH]c3ccccc23)NC1=O (some centres unmarked) [Example 4] (H[dPhe(4-Cl)]RW[ξK]-NH2; linker N-5 via Suc)
5. N=C(N)NCCC[C@@H]1NC(=O)[C@@H](Cc2ccccc2)NC(=O)[C@H](Cc2c[nH]cn2)NC(=O)CCCNC(=O)CCC(C(N)=O)NC(=O)[C@H](Cc2c[nH]c3ccccc23)NC1=O (some centres unmarked) [Example 7] ([GABA]H[dF]RW[ξE]-NH2; lactam N-6)

Result:
1: 1.54; 2: 0.57; 3: 0.46; 4: -0.13; 5: 0.76

###

system under test: hMC-3R (Homo sapiens)
Sequence (P41968 whole entry): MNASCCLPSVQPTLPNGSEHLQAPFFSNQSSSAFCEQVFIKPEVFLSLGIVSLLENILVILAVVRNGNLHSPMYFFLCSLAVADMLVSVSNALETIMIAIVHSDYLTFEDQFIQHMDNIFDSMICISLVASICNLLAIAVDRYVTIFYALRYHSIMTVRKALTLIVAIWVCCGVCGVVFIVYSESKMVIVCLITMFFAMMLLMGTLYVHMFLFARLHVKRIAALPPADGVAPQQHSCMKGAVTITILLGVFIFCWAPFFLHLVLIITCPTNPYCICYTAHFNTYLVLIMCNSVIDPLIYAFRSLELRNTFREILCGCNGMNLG
method summary: cAMP assay in CHO cells expressing a human melanocortin receptor
experimental parameters: 45 minutes at room temperature
Procedure: Chinese hamster ovary cells expressing a human melanocortin receptor were rinsed with calcium- and magnesium-free PBS (Life Technologies), and detached from the tissue culture flasks by 5-minutes incubation with enzyme-free dissociation buffer (S-014-B, Specialty Media). […] Subsequently, cells were counted and the cell suspension was treated with the phosphodiesterase inhibitor 3-isobutyl-1-methylxanthine (to concentration of 0.6 mM). […]
Starred links: 1 amine or outer side, 2 acyl side, 3 side chain; linkers in the order of their positions; H or OH if unused. Positions of bridges follow the written chain, without caps; N, C: chain ends. Non-standard residues stand in square brackets, D forms with d. Residues, ends and D or L forms follow the SMILES beside them. ξ: configuration not given here. dPhe(4-Cl) = N[C@H](Cc1ccc(Cl)cc1)C(=O)O; Suc = O=C(CCC(=O)[*:2])[*:1]; ξE = NC(CCC(=O)O)C(=O)O; ξK = NCCCCC(N)C(=O)O; Ava = NCCCCC(=O)O
So I've got a bunch of compounds here, and I need their pEC50 values.
One number for each entry, as −log10 of the molar value.

Request: Which measured pEC50 belongs to N=C(N)NCCC[C@@H]1NC(=O)[C@@H](Cc2ccccc2)NC(=O)[C@H](Cc2c[nH]cn2)NC(=O)CCCCNC(=O)CCC(C(N)=O)NC(=O)[C@H](Cc2c[nH]c3ccccc23)NC1=O (some centres unmarked) [Example 6] ([Ava]H[dF]RW[ξE]-NH2; lactam N-6) , tested on hMC-3R (Homo sapiens)?
Result: 6.72

Pending compound:
Request: Which measured pEC50 belongs to N=C(N)NCCC[C@@H]1NC(=O)[C@@H](Cc2ccc(Cl)cc2)NC(=O)[C@H](Cc2c[nH]cn2)NC(=O)CCC(=O)NCCCCC(C(N)=O)NC(=O)[C@H](Cc2c[nH]c3ccccc23)NC1=O (some centres unmarked) [Example 4] (H[dPhe(4-Cl)]RW[ξK]-NH2; linker N-5 via Suc) , tested on hMC-3R (Homo sapiens)?
Result: 7.40

Taken from patent US6960646B2.
